Target: Cyclin-dependent kinase 2/cyclin E1 (Homo sapiens, UniProt P24941)
Assay: Inhibition of CDK2/cyclin E by scintillation proximity assay
METRIC: IC50

# SMI, SYSTEM_NAME, METRIC, ASSAY_RESULT
measured = [
    ("CC(C)(C)C(=O)N1Cc2c(NC(=O)c3cc(F)cc(F)c3)n[nH]c2C1(C)C", "Cyclin-dependent kinase 2/cyclin E1 (Homo sapiens, UniProt P24941)", "IC50", "90 nM"),
]

###

Assay: Half life in nu/nu mouse at 10 mg/kg, iv
Format: ADME, organism-based
Design: dose 10 mg/kg, route intravenous
Conditions: in vivo

# SMI, half-life
rows = [
    ("CC(C)CC(=O)Nc1[nH]nc2c1CN(C(=O)C1CCN(C)CC1)C2(C)C", "4.1 h"),
]

###

Experiment: Solubility at pH 7
Type: physicochemical
Conditions: buffer
# reported solubility; entries follow

# SMI, solubility
records = [
    ("CN1CCC(C(=O)Nc2n[nH]c3c2CN(C(=O)C(C)(C)C)C3(C)C)CC1", "> 225 µM"),
    ("CCCNC(=O)Nc1n[nH]c2c1CN(C(=O)C1CCN(C)CC1)C2(C)C", "> 225 µM"),
    ("CN1CCC(C(=O)N2Cc3c(NC(=O)c4ccncc4)n[nH]c3C2(C)C)CC1", "> 225 µM"),
    ("CN1CCC(C(=O)N2Cc3c(NC(=O)c4cccc(F)c4)n[nH]c3C2(C)C)CC1", "> 225 µM"),
    ("CN1CCC(C(=O)N2Cc3c(NC(=O)c4ccc5ccccc5c4)n[nH]c3C2(C)C)CC1", "219 µM"),
    ("CC(C)CC(=O)Nc1n[nH]c2c1CN(C(=O)C1CCN(C3CC3)CC1)C2(C)C", "> 225 µM"),
    ("CN1CCN(C(=O)N2Cc3c(NC(=O)c4ccc(F)cc4)n[nH]c3C2(C)C)CC1", "> 225 µM"),
    ("CN1CCC(C(=O)N2Cc3c(NC(=O)c4ccc(C(F)(F)F)cc4)n[nH]c3C2(C)C)CC1", "191 µM"),
    ("CN(C)CC(=O)Nc1n[nH]c2c1CN(C(=O)C(C)(C)C)C2(C)C", "> 225 µM"),
    ("CN1CCC(C(=O)N2Cc3c(NC(=O)Nc4cccc(F)c4)n[nH]c3C2(C)C)CC1", "> 225 µM"),
]

###

Target: MAP kinase-activated protein kinase 2 (Homo sapiens)
Sequence (P49137 whole entry): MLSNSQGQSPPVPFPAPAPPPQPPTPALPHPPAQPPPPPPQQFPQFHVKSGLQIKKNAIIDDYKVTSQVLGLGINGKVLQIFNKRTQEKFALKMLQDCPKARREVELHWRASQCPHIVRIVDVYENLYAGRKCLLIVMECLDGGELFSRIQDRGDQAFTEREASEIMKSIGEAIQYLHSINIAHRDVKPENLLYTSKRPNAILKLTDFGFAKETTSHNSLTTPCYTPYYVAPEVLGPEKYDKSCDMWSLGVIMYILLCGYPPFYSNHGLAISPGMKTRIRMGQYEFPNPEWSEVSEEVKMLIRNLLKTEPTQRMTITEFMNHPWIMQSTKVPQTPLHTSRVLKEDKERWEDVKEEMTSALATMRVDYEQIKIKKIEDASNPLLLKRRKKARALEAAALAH
Assay: Inhibition of MAPKAPK2 by scintillation proximity assay
pIC50: −log10 of the molar value.
# reported pIC50; entries follow

# SMI, pIC50
records = [
    ("CC(C)CC(=O)Nc1[nH]nc2c1CN(C(=O)C1CCN(C)CC1)C2(C)C", "< 5.00"),
    ("CC(C)(C)C(=O)N1Cc2c(NC(=O)c3cc(F)cc(F)c3)n[nH]c2C1(C)C", "< 5.00"),
]

###

Molecular target: Fibroblast growth factor receptor 1 (Homo sapiens, UniProt P11362)
Sequence (P11362 whole entry): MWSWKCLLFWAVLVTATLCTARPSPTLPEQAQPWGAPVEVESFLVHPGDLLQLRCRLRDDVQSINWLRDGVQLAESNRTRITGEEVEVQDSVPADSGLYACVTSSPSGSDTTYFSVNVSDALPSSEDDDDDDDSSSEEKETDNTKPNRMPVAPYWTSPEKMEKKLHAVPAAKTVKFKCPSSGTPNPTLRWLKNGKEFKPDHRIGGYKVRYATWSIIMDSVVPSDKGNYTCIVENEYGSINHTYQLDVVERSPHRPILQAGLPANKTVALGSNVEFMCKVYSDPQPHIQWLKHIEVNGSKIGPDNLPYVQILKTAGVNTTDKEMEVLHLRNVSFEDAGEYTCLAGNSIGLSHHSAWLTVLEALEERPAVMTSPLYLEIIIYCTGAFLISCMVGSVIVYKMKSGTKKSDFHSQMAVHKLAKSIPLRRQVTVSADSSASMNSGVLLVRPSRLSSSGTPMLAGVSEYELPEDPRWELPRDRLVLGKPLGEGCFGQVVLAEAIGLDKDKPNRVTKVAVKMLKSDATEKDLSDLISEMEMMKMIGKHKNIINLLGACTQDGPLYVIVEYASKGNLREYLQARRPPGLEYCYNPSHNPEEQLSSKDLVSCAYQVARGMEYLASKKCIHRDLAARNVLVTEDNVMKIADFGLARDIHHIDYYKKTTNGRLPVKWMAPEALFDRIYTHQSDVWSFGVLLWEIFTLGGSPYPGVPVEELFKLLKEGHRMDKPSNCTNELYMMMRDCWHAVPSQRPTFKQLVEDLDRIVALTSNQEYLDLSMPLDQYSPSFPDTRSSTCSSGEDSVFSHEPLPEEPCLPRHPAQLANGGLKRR
pIC50: −log10 of the molar value.

# SMI, pIC50
records = [
    ("CC(C)(C)C(=O)N1Cc2c(NC(=O)c3cc(F)cc(F)c3)n[nH]c2C1(C)C", "< 5.00"),
]

###

Assay: AUC in nu/nu mouse at 10 mg/kg, iv
Type: ADME, organism-based
Design: dose 10 mg/kg, route intravenous
Conditions: plasma
METRIC: AUC (µM·h)

# SMI, ASSAY_RESULT
records = [
    ("CC(C)CC(=O)Nc1[nH]nc2c1CN(C(=O)C1CCN(C)CC1)C2(C)C", 19.2),
]

Where do these numbers come from? They come from ChEMBL document CHEMBL1157586.
